Kindly supply the reported Classification values for the records listed here.
Target: PDZ protein (GST-PDZ fusion) (Homo sapiens)
Construct: made in house; host or cells: E. coli (DH5alpha, BL21 or JM109)
Sequence (P50479 1-330): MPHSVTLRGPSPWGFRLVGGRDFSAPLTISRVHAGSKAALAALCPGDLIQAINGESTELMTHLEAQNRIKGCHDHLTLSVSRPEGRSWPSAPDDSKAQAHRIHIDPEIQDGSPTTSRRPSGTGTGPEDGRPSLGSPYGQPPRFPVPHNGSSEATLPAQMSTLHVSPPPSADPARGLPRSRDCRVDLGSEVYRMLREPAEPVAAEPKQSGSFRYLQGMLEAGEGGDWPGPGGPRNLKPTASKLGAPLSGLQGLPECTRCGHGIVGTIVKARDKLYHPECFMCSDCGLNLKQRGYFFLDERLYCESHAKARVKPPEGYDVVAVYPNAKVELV
Assay: G' assay (10 uM PL peptide), results of TABLE 7 and TABLE 12
Type: binding
Details: PDZ LIM RIL, PDZ Domain 1
Description: Each page of TABLE 7 and 12 includes seven columns. The columns in each table are numbered from left to right such that the left-most column in each table is column 1 and the right-most column in each table is column 7. […] Finally, the seventh column labeled “Classification” is another measure of the level of binding. In particular, it provides an absorbance value at 450 nm which indicates the amount of PL peptide bound to the PDZ protein. […]
Ends that are not written are not given here. * marks the point of attachment. Biotin = O=C1N[C@H]2[C@H](CS[C@H]2CCCCC(=O)*)N1

Examples with answers:
1. LASKSAEEGKQIPDSLSTDL (Biotin-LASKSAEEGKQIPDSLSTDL) [Dock2]
1 (A450 nm 0-1)
2. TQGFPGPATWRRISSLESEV
5 (A450 nm of 4 more than 2× repeated)
3. INSVGSTASSSQPLLVHDDV (Biotin-INSVGSTASSSQPLLVHDDV) [c-kit receptor]
1 (A450 nm 0-1)

Now for a further sequence.
INPUT: Under PDZ protein (GST-PDZ fusion) (Homo sapiens): report Classification of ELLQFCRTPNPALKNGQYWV (Biotin-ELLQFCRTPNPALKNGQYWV) .
OUTPUT: 2 (A450 nm 1-2)
